# ASSAY_REMARKS: Human liver microsome stability
# Type: in vitro ADME
# EXPERIMENTAL_CONDITIONS: pooled human liver microsomes 0.5 mg/mL, 1 μM compound, NADPH 1 mM, pH 7.4, 37° C., 0-60 min
MEASURE: HLM Metabolism t1/2

1. CNC(=O)[C@@H]1CN(C(C)c2ccc(NCC(F)(F)F)nc2)C(=O)c2c3c(nn21)C[C@@H](C)N(C(=O)c1ccc(Cl)c(Cl)c1)C3 (single isomer, unassigned) [Compound 33A] | 0.798 h
2. CNC(=O)[C@@H]1CN(C(C)c2ccccn2)C(=O)c2c3c(nn21)C[C@@H](C)N(C(=O)c1ccc(Cl)c(Cl)c1)C3 (single isomer, unassigned) [Compound 37B] | >3 h
3. CNC(=O)[C@@H]1CN(C(C)c2nc(C(F)(F)F)cs2)C(=O)c2c3c(nn21)C[C@@H](C)N(C(=O)c1ccc(Cl)c(Cl)c1)C3 (single isomer, unassigned) [Compound 44B] | >3 h
4. CNC(=O)[C@@H]1CN(C(C)c2ccc(S(C)(=O)=O)cc2)C(=O)c2c3c(nn21)C[C@@H](C)N(C(=O)c1ccc(Cl)c(C(F)(F)F)c1)C3 (single isomer, unassigned) [Compound 19B] | >3 h
5. CC(c1ccc(OC(F)F)cc1)N1C[C@@H](C(=O)NC2CC2)n2nc3c(c2C1=O)CN(C(=O)c1ccc(Cl)c(C#N)c1)[C@H](C)C3 (single isomer, unassigned) [Compound 26B] | 1.12 h
6. CNC(=O)[C@@H]1CN(C(C)c2ccc(OC(F)F)c(F)c2)C(=O)c2c3c(nn21)C[C@@H](C)N(C(=O)c1ccc(Cl)c(Cl)c1)C3 (single isomer, unassigned) [Compound 24B] | >3 h
7. CNC(=O)[C@@H]1CN(C(C)c2ccc(S(=O)(=O)C3CC3)cc2)C(=O)c2c3c(nn21)C[C@@H](C)N(C(=O)c1ccc(Cl)c(C(F)(F)F)c1)C3 (single isomer, unassigned) [Compound 20B] | >3 h
8. CNC(=O)[C@@H]1CN(C(C)c2ccc(-c3nnnn3C)cc2)C(=O)c2c3c(nn21)C[C@@H](C)N(C(=O)c1ccc(Cl)c(Cl)c1)C3 (single isomer, unassigned) [Compound 29B] | >3 h
9. CCC(c1ccc(S(C)(=O)=O)cc1)N1C[C@@H](C(=O)NC)n2nc3c(c2C1=O)CN(C(=O)c1ccc(Cl)c(Cl)c1)[C@H](C)C3 (single isomer, unassigned) [Compound 22B] | >3 h
10. CNC(=O)[C@@H]1CN(C(C)c2cnc(C(F)(F)F)nc2)C(=O)c2c3c(nn21)C[C@@H](C)N(C(=O)c1ccc(Cl)c(C(F)(F)F)c1)C3 (single isomer, unassigned) [Compound 43B] | >3 h

Source listed as patent US20240279227A1.
